Every entry's value here was drawn from PubChem BioAssay (NCI).

test: NCI Yeast Anticancer Drug Screen. Data for the mlh1 rad18 strain (AID 175); details: S. cerevisiae mlh1 rad18 strain growth inhibition; at 50.0 µM; hits give high values
About 79,000 compounds went through this panel and 15% of them were active in at least one assay; those are over-represented in the sample as a whole.
# growth inhibition annotations

{"columns": ["compound", "valueUnit", "growth inhibition"],
 "data": [
  ["CN(C)CSCCO", "%", 0.45],
  ["O=C1CCCc2cc3c(cc21)CC1(C3)Cc2cc3c(cc2C1)C(=O)CCC3", "%", -9],
  ["COc1ccc(N2C(=O)C3c4[nH]c5ccccc5c4C4CCCCC4C3C2=O)cc1 (configuration not stated)", "%", -6.05],
  ["CC(C)(C)Nc1ccc([N+](=O)[O-])cc1[N+](=O)[O-]", "%", -10.7],
  ["O=C1CSC=C(c2ccccc2)O1", "%", -19.4],
  ["CCOC(=O)C(CCC(=O)OC)C(=O)OCC", "%", 1.6],
  ["CCOC(=O)/C(C#N)=C/c1ccc(C)o1", "%", 35],
  ["N#CCCCCCCn1cnc2c(=S)nc[nH]c21", "%", 22.4],
  ["CCCCCCCCn1c(N)c(C#N)cnc1=S", "%", 1.2],
  ["COc1cc2c(c(Cl)c1OC)CCN(C)CC2c1ccccc1 (configuration not stated)", "%", 1.85],
  ["COC(C(=O)C(O)C(C)O)C1CC2C=C3C=C(OC4CC(OC5CC(O)C(OC)C(C)O5)C(OC(C)=O)C(C)O4)C(C)C(=O)C3=C(O)C2=C(O)C1OC1CC(OC2CC(OC3CC(C)(O)C(OC(=O)C(C)C)C(C)O3)C(O)C(C)O2)C(O)C(C)O1 (configuration not stated)", "%", 45.8],
  ["C[Si](C)(CNCCN)O[Si](C)(C)CNCCN", "%", 13.3],
  ["Cc1cc(NC(=O)N(CCCl)N=O)c(C)cc1NC(=O)c1ccccc1", "%", 55.2],
  ["COC(=O)c1cc(OC)c2cccnc2c1Nc1ccccc1", "%", -6.8],
  ["O=C(O)c1c(I)cc(I)c(O)c1I", "%", -6.9],
  ["O=c1oc2ccccc2c(O)c1C(c1cc(OCc2ccccc2)cc(OCc2ccccc2)c1)c1c(O)c2ccccc2oc1=O", "%", -16.6],
  ["Cc1cc(C(C)C)c(C)cc1C(C)C", "%", -4.15],
  ["CC1CCC(OC(=O)CC#N)CC1 (configuration not stated)", "%", -6.15],
  ["CN1CCC=C(COC(=O)C(C)(C)C)C1", "%", 18.4],
  ["NC(=O)c1ccc([N+](=O)[O-])cc1", "%", 15.3],
  ["C/C=C(/C)c1ccccc1", "%", 24.6],
  ["COC(=O)c1cc2ccccc2[nH]1", "%", -13.8],
  ["O=C(Nc1ccc2c(c1)Cc1cccc(F)c1-2)C(F)(F)F", "%", 7.3],
  ["NCCCN=c1ccc2c3c1c(O)c1c(O)ccc(=O)c1c3[nH]n2CCNCCO", "%", 36.2],
  ["CN1C(=O)C(Cc2cnc[nH]2)NC1=S (configuration not stated)", "%", 1.1],
  ["CC(C)c1ccc(Cc2ccc(C(C)C)c(NC(=O)C(=O)Cc3cnc4ccccc4n3)c2C(C)C)c(C(C)C)c1NC(=O)C(=O)Cc1cnc2ccccc2n1", "%", -28.8],
  ["N#C/C(=C(/Cc1ccc(F)cc1)NP(=O)(c1ccccc1)c1ccccc1)c1ccc(F)cc1", "%", -2.35],
  ["COC(=O)C(=O)C(C(=O)C=C(C)C)c1nc2n(c1O)C(=N)N=N2 (configuration not stated)", "%", 17.4],
  ["COc1ccccc1NC(=O)C(/C=N/C(N)=S)=C(\\C)O", "%", -14.4],
  ["CCCCCCCC(NC(C)=O)(C(=O)OCC)C(=O)OCC", "%", -28.8],
  ["NCCNc1ncnc2ccccc12", "%", -5.2],
  ["O=[N+]([O-])/C=C/c1cn(CCCCCn2cc(/C=C/[N+](=O)[O-])c3ccccc32)c2ccccc12", "%", -9.8]
]}
